Item-by-item account of IC50
Biological target: CDK1/CyclinB (h) (Homo sapiens, UniProt P06493)
Sequence (P06493 whole entry): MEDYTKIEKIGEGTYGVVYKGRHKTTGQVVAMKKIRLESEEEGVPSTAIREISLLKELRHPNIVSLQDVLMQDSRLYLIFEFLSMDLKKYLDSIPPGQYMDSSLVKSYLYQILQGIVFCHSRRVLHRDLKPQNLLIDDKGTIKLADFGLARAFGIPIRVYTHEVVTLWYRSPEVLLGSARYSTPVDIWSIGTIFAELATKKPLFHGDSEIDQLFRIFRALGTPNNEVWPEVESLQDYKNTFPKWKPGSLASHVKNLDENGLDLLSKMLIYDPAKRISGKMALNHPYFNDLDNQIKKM
Sequence (P14635 whole entry partner): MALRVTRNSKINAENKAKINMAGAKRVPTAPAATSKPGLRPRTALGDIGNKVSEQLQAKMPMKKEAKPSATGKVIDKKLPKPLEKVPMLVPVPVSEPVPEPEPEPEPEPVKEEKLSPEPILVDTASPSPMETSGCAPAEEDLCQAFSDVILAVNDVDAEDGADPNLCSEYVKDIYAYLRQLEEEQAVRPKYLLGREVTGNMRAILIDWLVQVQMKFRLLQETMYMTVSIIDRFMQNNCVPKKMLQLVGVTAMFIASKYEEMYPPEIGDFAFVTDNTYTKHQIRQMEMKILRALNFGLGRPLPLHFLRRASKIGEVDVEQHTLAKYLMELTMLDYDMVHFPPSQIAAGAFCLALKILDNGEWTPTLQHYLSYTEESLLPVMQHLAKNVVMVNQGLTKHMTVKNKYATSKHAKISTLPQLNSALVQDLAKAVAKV
Assay: CDK1/CyclinB human kinase assay (FRET)
Type: biochemical
Settings: read-out: CDK1 pIC50 (converted)
endpoint: IC50

[[record]]
compound = "CN1CCCNc2ncnc3c2/C(=C/Nc2cc(cc(C(F)(F)F)c2)OCCCCC1=O)C(=O)N3"
endpoint = "IC50"
test_result = "> 10 µM"

[[record]]
compound = "CN1CCN(c2ccc3cc2CN(C)CCCC(=O)N(C)CCCNc2ncnc4c2/C(=C/N3)C(=O)N4)CC1"
endpoint = "IC50"
test_result = "1.55 µM"

[[record]]
compound = "CN1CCNc2ncnc3c2/C(=C/Nc2cccc(c2)OCCCCCCC1=O)C(=O)N3"
endpoint = "IC50"
test_result = "> 10 µM"

[[record]]
compound = "COc1ccc2cc1OCCCCCC(=O)N(C)CCNc1ncnc3c1/C(=C/N2)C(=O)N3"
endpoint = "IC50"
test_result = "2.14 µM"

[[record]]
compound = "CCN1CCCCCC(=O)N2CCN(CC2)c2cccc3c2C(=CNc2cccc(c2)S(=O)(=O)N(C)CC1=O)C(=O)N3 (mixture of isomers)"
endpoint = "IC50"
test_result = "> 10 µM"

[[record]]
compound = "CN1CCCNc2ncnc3c2/C(=C/Nc2cc(cc(C(F)(F)F)c2)OCCCC1=O)C(=O)N3"
endpoint = "IC50"
test_result = "> 10 µM"

[[record]]
compound = "CN1CCN(c2ccc3cc2OCCCCCC(=O)N(C)CCNc2ncnc4c2/C(=C/N3)C(=O)N4)CC1"
endpoint = "IC50"
test_result = "7.59 µM"


---

Target: AuroraB (h) (Homo sapiens)
Sequence (Q96GD4 whole entry): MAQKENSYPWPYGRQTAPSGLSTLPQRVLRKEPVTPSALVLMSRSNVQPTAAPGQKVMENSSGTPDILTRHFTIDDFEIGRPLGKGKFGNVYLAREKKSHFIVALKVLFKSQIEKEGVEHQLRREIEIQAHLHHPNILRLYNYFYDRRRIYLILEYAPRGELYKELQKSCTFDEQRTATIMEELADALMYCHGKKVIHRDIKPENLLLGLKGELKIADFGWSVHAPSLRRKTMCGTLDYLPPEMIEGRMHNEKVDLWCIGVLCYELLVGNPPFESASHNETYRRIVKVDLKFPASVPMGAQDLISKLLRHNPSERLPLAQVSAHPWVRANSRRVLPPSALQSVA
Assay: Aurora-B human kinase assay (SPA)
Format: biochemical
endpoint: AuroraB pIC50

[[record]]
compound = "CN1CCN(c2ccc3cc2OCCCCC(=O)N(C)CCCNc2ncnc4c2C(=CN3)C(=O)N4)CC1 (mixture of isomers)"
test_result = 5.55

[[record]]
compound = "CN1CCCNc2ncnc3c2C(=CNc2ccc(N4CCOCC4)c(c2)OCCCCCC1=O)C(=O)N3 (mixture of isomers)"
test_result = 5.58

[[record]]
compound = "COc1cc2cc(c1OC)OCC(=O)N(C)CCCCNc1ncnc3c1C(=CN2)C(=O)N3 (mixture of isomers)"
test_result = 5.23


---

Test system: PC-3
Experiment: Cellular proliferation assay (Alamar blue), PC-3
Assay type: cell-based
Details: Homo sapiens, PC-3, 72 h, PC-3 cells, 72 hours with compound, 10% FCS, read-out: pIC50 PC-3 (converted)
This listing pairs compounds with measured IC50.
endpoint: IC50

[[record]]
compound = "COc1nc2c3c(n1)NC(=O)/C3=C\\Nc1ccc(Cl)c(c1)OCCCCC(=O)N(C)CCCN2 [Compound 111]"
test_result = "6.46 µM"

[[record]]
compound = "COc1cc2cc(c1OC)CN(C)CC(=O)N(C)CCCNc1ncnc3c1/C(=C/N2)C(=O)N3 [Compound 125]"
test_result = "> 10 µM"

[[record]]
compound = "O=C1Nc2ncnc3c2/C1=C/Nc1ccc(c(Cl)c1)OCCCCCCC(=O)N1CCN3CC1 [Compound 20]"
test_result = "> 10 µM"

[[record]]
compound = "O=C1Nc2ncnc3c2C1=CNc1cc(ccc1Cl)OCCCCC(=O)N1CCN3CC1 (mixture of isomers) [Compound 13]"
test_result = "> 10 µM"

[[record]]
compound = "COc1ccc2cc1OCCCCC(=O)N(C)CCNc1ncnc3c1/C(=C/N2)C(=O)N3 [Compound 45]"
test_result = "9.12 µM"

[[record]]
compound = "COc1cc2cc(c1OC)OCCCC(=O)N(C)CCNc1ncnc3c1/C(=C/N2)C(=O)N3 [Compound 132]"
test_result = "> 10 µM"

[[record]]
compound = "CN1CCNC(=O)CCCCCOc2cc(ccc2Cl)N/C=C2\\C(=O)Nc3ncnc1c32 [Compound 52]"
test_result = "> 10 µM"

[[record]]
compound = "CN1CCCNc2ncnc3c2/C(=C/Nc2cccc(c2)OCC(=O)N2CCC[C@@H]2C1)C(=O)N3 [Compound 170]"
test_result = "> 10 µM"

[[record]]
compound = "CN1CCCCNc2ncnc3c2/C(=C/Nc2cccc(c2)OCC1=O)C(=O)N3 [Compound 143]"
test_result = "> 10 µM"

[[record]]
compound = "COc1ccc2cc1OCCCC(=O)N(C(C)C)CCN(C)c1ncnc3c1/C(=C/N2)C(=O)N3 [Compound 32]"
test_result = "1 µM"

[[record]]
compound = "CN1CCNC(=O)CCCCCOc2cccc(c2)N/C=C2\\C(=O)Nc3ncnc1c32 [Compound 41]"
test_result = "> 10 µM"

[[record]]
compound = "O=C1Nc2ncnc3c2/C1=C/Nc1ccc(c(F)c1)OCCCCCC(=O)N1CCN3CC1 [Compound 22]"
test_result = "> 10 µM"

[[record]]
compound = "C[C@@H]1CN(C)CCCNc2ncnc3c2/C(=C/Nc2cccc(c2)OCC(=O)N1)C(=O)N3 [Compound 99]"
test_result = "> 10 µM"

[[record]]
compound = "CN1CCCCCCC(=O)NCCN(C)c2ncnc3c2/C(=C/Nc2cccc(c2)C1)C(=O)N3 [Compound 54]"
test_result = "> 10 µM"

[[record]]
compound = "CN1CCNC(=O)CCCOc2cccc(c2)N/C=C2\\C(=O)Nc3ncnc(c32)NCC1 [Compound 159]"
test_result = "> 10 µM"

[[record]]
compound = "CN1CCNC(=O)CCCOc2cc(ccc2Cl)N/C=C2\\C(=O)Nc3ncnc1c32 [Compound 55]"
test_result = "> 10 µM"


---

Measured IC50 of individual entries
System: U87MG
Assay: Cellular proliferation assay (Alamar blue), U87MG
Format: cell-based
Conditions: Homo sapiens, U-87 MG, 72 h, U87MG cells, 72 hours with compound, 10% FCS, read-out: pIC50 U87MG (converted)
endpoint: IC50

[[record]]
compound = "CN1CCCCCC(=O)N2CCN(CC2)c2ncnc3c2/C(=C/Nc2cccc(c2)C1)C(=O)N3"
endpoint = "IC50"
test_result = "> 10 µM"

[[record]]
compound = "COc1cc2cc(c1OC)OCCCC(=O)N(C)CCCNc1ncnc3c1/C(=C/N2)C(=O)N3"
endpoint = "IC50"
test_result = "5.25 µM"

[[record]]
compound = "COc1cc2cc(c1OC)CN(C)CC(=O)N(C)CCCNc1ncnc3c1/C(=C/N2)C(=O)N3"
endpoint = "IC50"
test_result = "> 10 µM"

[[record]]
compound = "COc1ccc2cc1OCCCCCCC(=O)NCCN(C)c1ncnc3c1/C(=C/N2)C(=O)N3"
endpoint = "IC50"
test_result = "> 10 µM"

[[record]]
compound = "COc1ccc2cc1CN(C)CC(=O)N(C)CCCCNc1ncnc3c1/C(=C/N2)C(=O)N3"
endpoint = "IC50"
test_result = "> 10 µM"

[[record]]
compound = "CN1CCNC(=O)CCCOc2cccc(c2)N/C=C2\\C(=O)Nc3ncnc(c32)NCC1"
endpoint = "IC50"
test_result = "> 10 µM"

[[record]]
compound = "COc1ccc2cc1OCCCC(=O)N1CCN(CC1)c1ncnc3c1/C(=C/N2)C(=O)N3"
endpoint = "IC50"
test_result = "7.76 µM"

[[record]]
compound = "CN1CCCNc2ncnc3c2/C(=C/Nc2cccc(c2)OCC(=O)N[C@H](Cc2ccccc2)C1)C(=O)N3"
endpoint = "IC50"
test_result = "> 10 µM"

[[record]]
compound = "CN1CCCN(C)c2ncnc3c2/C(=C/Nc2cccc(c2)OCCCCCCC1=O)C(=O)N3"
endpoint = "IC50"
test_result = "> 10 µM"

[[record]]
compound = "O=C1Nc2ncnc3c2C1=CNc1cc(ccc1Cl)OCCCCC(=O)N1CCN3CC1 (mixture of isomers)"
endpoint = "IC50"
test_result = "> 10 µM"

[[record]]
compound = "CN1CCNC(=O)COc2cccc(c2)N/C=C2\\C(=O)Nc3ncnc(c32)NCC1"
endpoint = "IC50"
test_result = "> 10 µM"

[[record]]
compound = "O=C1Nc2ncnc3c2C1=CNc1ccc(cc1)S(=O)(=O)NCCCCC(=O)N1CCN3CC1 (mixture of isomers)"
endpoint = "IC50"
test_result = "> 10 µM"

[[record]]
compound = "CN1CCNC(=O)CCCOc2cccc(c2)N/C=C2\\C(=O)Nc3ncnc1c32"
endpoint = "IC50"
test_result = "> 10 µM"

[[record]]
compound = "CN1CCCNc2ncnc3c2/C(=C/Nc2ccc(NS(=O)(=O)c4ccccc4)c(c2)OCCCC1=O)C(=O)N3"
endpoint = "IC50"
test_result = "> 10 µM"

[[record]]
compound = "CN1CCN(c2ccc3cc2CN(C)CCCC(=O)N(C)CCCNc2ncnc4c2/C(=C/N3)C(=O)N4)CC1"
endpoint = "IC50"
test_result = "0.501 µM"

[[record]]
compound = "COc1ccc2cc1OCCCC(=O)N(C)CCCN(C)c1ncnc3c1/C(=C/N2)C(=O)N3"
endpoint = "IC50"
test_result = "1.62 µM"

[[record]]
compound = "COc1ccc2cc1OCCCCCC(=O)N(C)CCNc1ncnc3c1/C(=C/N2)C(=O)N3"
endpoint = "IC50"
test_result = "1.82 µM"

[[record]]
compound = "COc1ccc2cc1OCCCC(=O)NCCN(C)c1ncnc3c1/C(=C/N2)C(=O)N3"
endpoint = "IC50"
test_result = "> 10 µM"

[[record]]
compound = "CN1CCCCNc2ncnc3c2/C(=C/Nc2cccc(c2)OCC1=O)C(=O)N3"
endpoint = "IC50"
test_result = "> 10 µM"

[[record]]
compound = "CN1CCCNc2ncnc3c2/C(=C/Nc2ccc(NC(=O)NC4CCCCC4)c(c2)OCCCC1=O)C(=O)N3"
endpoint = "IC50"
test_result = "2.04 µM"

[[record]]
compound = "CN1CC(=O)N(C)CCCCNc2ncnc3c2/C(=C/Nc2cccc(c2)C1)C(=O)N3"
endpoint = "IC50"
test_result = "> 10 µM"

[[record]]
compound = "COc1cc2cc(c1OC)CN(C)CCCC(=O)N(C)CCNc1ncnc3c1/C(=C/N2)C(=O)N3"
endpoint = "IC50"
test_result = "> 10 µM"


Value source: patent US8338422B2
